Values were extracted from patent US20200216495A1.

target: Ac-VQIINK-NH2 (SEQ ID NO: 23) (N-terminal acetyl (Ac); C-terminal amide (NH2)); experiment: cell-based or functional assay
Square brackets hold non-standard residues; d marks the D form. Ends that are not written are not given here.
MEASUREMENT NAME: VQIINK Inhibition IC50 (µm)
One number for each entry, in µm.

Example entries begin here.
{"BINDER": "[dL][dK][dI][dR][dI][dH][dY][dR] [lkirihyr]", "UNIT OF MEASURE": "µm", "REPORTED VALUE": 3.02}
{"BINDER": "[dW][dR][dR][dK][dV][dR][dW][dW] [wrrkvrww]", "UNIT OF MEASURE": "µm", "REPORTED VALUE": 6.43}
{"BINDER": "[dW][dR][dL][dR][dI][dH][dM] [wrlrihm]", "UNIT OF MEASURE": "µm", "REPORTED VALUE": 7.39}
{"BINDER": "[dW][dR][dL][dK][dV][dR][dR][dW] [wrlkvrrw]", "UNIT OF MEASURE": "µm", "REPORTED VALUE": 7.04}
{"BINDER": "[dL][dK][dI][dA][dI][dH][dY][dH] [lkiaihyh]", "UNIT OF MEASURE": "µm", "REPORTED VALUE": 2.26}

Here are 7 binders. What values of VQIINK Inhibition IC50 were reported for them?
1. [dL][dK][dR][dR][dI][dH][dY][dH] [lkrrihyh]
2. [dF][dK][dL][dK][dL][dW][dW] [fklklww]
3. [dR][dL][dK][dV][dR][dW][dW][dW] [rlkvrwww]
4. [dW][dR][dL][dT][dI][dH][dW] [wrltihw]
5. [dW][dR][dL][dR][dI][dW][dW] [wrlriww]
6. [dL][dK][dI][dR][dI][dA][dY] [lkiriay]
7. [dK][dI][dR][dI][dH][dY][dH][dL] [kirihyhl]

[31.8, 1.3, 1.21, 3.16, 1.34, 1.41, 7.25]

Here are 2 binders. What values of VQIINK Inhibition IC50 were reported for them?
1. [dL][dK][dI][dR][dI][dE][dH][dY] [lkiriehy]
2. [dW][dE][dL][dR][dI][dH][dW] [welrihw]

1: 1.57; 2: 3.46
